MEASUREMENT PROTOCOL: Solubility limited absorbable dose (SLAD) calculation with predicted human jejunal Peff
RUN CONDITIONS: Ssi × V (500 mL) × Mp
Source text: Predicted Peff values were obtained from a calibration plot of literature Peff values vs measured Caco-2 Papp using either buffer or plasma as the transport medium (see Results section).
Reported SLAD by item:

>  <MOLECULE>
Cc1nc(Nc2ncc(N3CCN(C)[C@H](C)C3)c(Nc3cc(C)n(C)n3)n2)cc(C2CC2)c1F

>  <SLAD / mg>
2300

$$$$
>  <MOLECULE>
CC(C)NC(=N)NC(=N)Nc1ccc(Cl)c(Cl)c1

>  <SLAD / mg>
998

$$$$
>  <MOLECULE>
CCc1nc(N)nc(N)c1-c1ccc(Cl)cc1

>  <SLAD / mg>
326

$$$$
>  <MOLECULE>
C[C@H]1Cc2c([nH]c3cc(Cl)c(F)cc23)[C@@]2(N1)C(=O)Nc1ccc(Cl)cc12

>  <SLAD / mg>
738

$$$$
>  <MOLECULE>
C[C@H]1[C@@H](O)O[C@@H]2O[C@@]3(C)CC[C@H]4[C@H](C)CC[C@@H]1[C@@]24OO3 [Dihydroartemisinin]

>  <SLAD / mg>
413

$$$$
>  <MOLECULE>
CS(=O)(=O)c1ccc(-c2cnc(N)c(-c3ccc(C(F)(F)F)nc3)c2)cc1

>  <SLAD / mg>
15

$$$$

====

TARGET OR SYSTEM: UniProt P10635
Sequence (P10635 whole entry): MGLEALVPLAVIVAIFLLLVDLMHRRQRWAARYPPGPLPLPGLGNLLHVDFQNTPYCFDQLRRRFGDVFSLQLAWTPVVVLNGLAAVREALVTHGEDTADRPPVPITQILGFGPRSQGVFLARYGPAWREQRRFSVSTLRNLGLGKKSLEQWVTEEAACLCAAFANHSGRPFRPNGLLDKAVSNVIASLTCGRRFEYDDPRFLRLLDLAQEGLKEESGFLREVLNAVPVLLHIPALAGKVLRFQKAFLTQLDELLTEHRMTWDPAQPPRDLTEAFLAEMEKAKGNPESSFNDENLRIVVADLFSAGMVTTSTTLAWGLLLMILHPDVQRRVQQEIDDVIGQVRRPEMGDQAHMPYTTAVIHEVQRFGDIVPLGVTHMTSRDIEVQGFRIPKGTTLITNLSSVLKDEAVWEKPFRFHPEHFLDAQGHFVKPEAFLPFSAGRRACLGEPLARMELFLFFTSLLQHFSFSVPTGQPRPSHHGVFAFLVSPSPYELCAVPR
MEASUREMENT PROTOCOL: Cytochrome P450 inhibition in human liver microsomes
pIC50: −log10 of the molar value.
Reported pIC50 by item:

>  <MOLECULE>
CS(=O)(=O)c1ccc(-c2cnc(N)c(-c3ccc(C(F)(F)F)nc3)c2)cc1 [MMV048]

>  <pIC50>
< 4.70

$$$$
>  <MOLECULE>
COc1ccc2nc3cc(Cl)ccc3c(Nc3cc(CN4CCCC4)c(O)c(CN4CCCC4)c3)c2n1 [Pyronaridine]

>  <pIC50>
5.92

$$$$
>  <MOLECULE>
CC[C@H]1OC(=O)[C@H](C)[C@@H](O[C@H]2C[C@@](C)(OC)[C@@H](O)[C@H](C)O2)[C@H](C)[C@@H](O[C@@H]2O[C@H](C)C[C@H](N(C)C)[C@H]2O)[C@](C)(O)C[C@@H](C)CN(C)[C@H](C)[C@@H](O)[C@]1(C)O [Azithromycin]

>  <pIC50>
< 4.70

$$$$
>  <MOLECULE>
COc1ncnc(NS(=O)(=O)c2ccc(N)cc2)c1OC [Sulfadoxine]

>  <pIC50>
< 4.70

$$$$
>  <MOLECULE>
[H]/N=C(\N/C(=N/[H])Nc1ccc(Cl)cc1)NC(C)C [Proguanil]

>  <pIC50>
5.46

$$$$
>  <MOLECULE>
Cc1nc(Nc2ncc(N3CCN(C)[C@H](C)C3)c(Nc3cc(C)n(C)n3)n2)cc(C2CC2)c1F [MMV253]

>  <pIC50>
< 4.70

$$$$
>  <MOLECULE>
CCc1nc(N)nc(N)c1-c1ccc(Cl)cc1 [Pyrimethamine]

>  <pIC50>
< 4.70

$$$$
>  <MOLECULE>
CCCCN(CCCC)CC(O)c1cc(Cl)cc2c1-c1ccc(Cl)cc1/C2=C/c1ccc(Cl)cc1 (centres unmarked) [Lumefantrine]

>  <pIC50>
5.54

$$$$
>  <MOLECULE>
CCCCN(CCCC)CCC(O)c1cc2c(Cl)cc(Cl)cc2c2cc(C(F)(F)F)ccc12 (centres unmarked) [Halofantrine]

>  <pIC50>
6.57

$$$$
>  <MOLECULE>
Clc1ccc2c(N3CCN(CCCN4CCN(c5ccnc6cc(Cl)ccc56)CC4)CC3)ccnc2c1 [Piperaquine]

>  <pIC50>
< 4.70

$$$$
>  <MOLECULE>
N#Cc1cc(NC(=O)[C@H]2c3ccccc3C(=O)N(CC(F)(F)F)[C@@H]2c2cccnc2)ccc1F [SJ733]

>  <pIC50>
4.80

$$$$
>  <MOLECULE>
C[C@H]1c2cccc(O)c2C(=O)C2=C(O)[C@]3(O)C(=O)C(C(N)=O)=C(O)[C@@H](N(C)C)[C@@H]3[C@@H](O)[C@@H]21 [Doxycyclin]

>  <pIC50>
< 4.70

$$$$
>  <MOLECULE>
CCNCc1cc(Nc2ccnc3cc(Cl)ccc23)ccc1O [Desethylamodiaquine]

>  <pIC50>
5.59

$$$$
>  <MOLECULE>
Nc1ccc(S(=O)(=O)c2ccc(N)cc2)cc1 [Dapsone]

>  <pIC50>
< 4.70

$$$$
>  <MOLECULE>
CC1(C)N=C(N)N=C(N)N1c1ccc(Cl)cc1 [Cycloguanil]

>  <pIC50>
5.22

$$$$
>  <MOLECULE>
CO[C@H]1O[C@@H]2O[C@@]3(C)CC[C@H]4[C@H](C)CC[C@@H]([C@H]1C)[C@@]24OO3 [Artemether]

>  <pIC50>
< 4.70

$$$$
>  <MOLECULE>
C[C@H]1[C@H](OC(=O)CCC(=O)O)O[C@@H]2O[C@@]3(C)CC[C@H]4[C@H](C)CC[C@@H]1[C@@]24OO3 [Artesunate]

>  <pIC50>
< 4.70

$$$$
>  <MOLECULE>
O=C1C(O)=C([C@H]2CC[C@H](c3ccc(Cl)cc3)CC2)C(=O)c2ccccc21 [Atovaquone]

>  <pIC50>
< 4.70

$$$$
>  <MOLECULE>
CC(C)NC(=N)NC(=N)Nc1ccc(Cl)c(Cl)c1 [Chlorproguanil]

>  <pIC50>
5.85

$$$$
>  <MOLECULE>
CC(C)(N)CNC(=O)C[C@H]1CC[C@]2(CC1)OO[C@]1(O2)C2CC3CC(C2)CC1C3 [OZ277, Arterolane]

>  <pIC50>
< 4.70

$$$$
>  <MOLECULE>
COc1cc(C)c2c(Oc3cccc(C(F)(F)F)c3)c(OC)cc(NC(C)CCCN)c2n1 (centres unmarked) [Tafenoquine]

>  <pIC50>
< 4.70

$$$$
>  <MOLECULE>
C[C@H]1Cc2c([nH]c3cc(Cl)c(F)cc23)[C@@]2(N1)C(=O)Nc1ccc(Cl)cc12 [KAE609]

>  <pIC50>
5.23

$$$$
>  <MOLECULE>
C[C@H]1[C@@H](O)O[C@@H]2O[C@@]3(C)CC[C@H]4[C@H](C)CC[C@@H]1[C@@]24OO3 [Dihydroartemisinin]

>  <pIC50>
< 4.70

$$$$

====

Reported efflux ratio by item:
MEASUREMENT PROTOCOL: Bidirectional permeability across Caco-2 cell monolayers
RUN CONDITIONS: human, Caco-2, pH 7.4

>  <MOLECULE>
CC(C)NCC(O)COc1cccc2ccccc12 (stereo not drawn) [Propranolol]

>  <efflux ratio>
0.9 to 1

$$$$
>  <MOLECULE>
C[C@H]1[C@H](N2CCS(=O)(=O)CC2)O[C@@H]2O[C@@]3(C)CC[C@H]4[C@H](C)CC[C@@H]1[C@@]24OO3 [Artemisone]

>  <efflux ratio>
0.8

$$$$
>  <MOLECULE>
COC(=O)c1ccccc1-c1c2ccc(=N)cc-2oc2cc(N)ccc12 [Rhodamine 123]

>  <efflux ratio>
6 to 39

$$$$

====

Reported Unbound CLint by item:
Test system: human liver microsomes
MEASUREMENT PROTOCOL: in vitro
RUN CONDITIONS: human, 1 µM, pH 7.4
Marks after values point to notes of the source that are not given here.

>  <MOLECULE>
CCN(CC)Cc1cc(Nc2ccnc3cc(Cl)ccc23)ccc1O [Amodiaquine]

>  <TARGET OR SYSTEM>
human liver microsomes

>  <Unbound CLint>
339 µL/min/mg

$$$$
>  <MOLECULE>
Nc1ccc(S(=O)(=O)c2ccc(N)cc2)cc1 [Dapsone]

>  <TARGET OR SYSTEM>
human liver microsomes

>  <Unbound CLint>
< 8.14^c µL/min/mg

$$$$
>  <MOLECULE>
OC(c1cc(C(F)(F)F)nc2c(C(F)(F)F)cccc12)C1CCCCN1 (centres unmarked) [Mefloquine]

>  <TARGET OR SYSTEM>
human liver microsomes

>  <Unbound CLint>
< 140^c µL/min/mg

$$$$
>  <MOLECULE>
CC(C)(N)CNC(=O)C[C@H]1CC[C@]2(CC1)OO[C@]1(O2)C2CC3CC(C2)CC1C3 [OZ277, Arterolane]

>  <TARGET OR SYSTEM>
human liver microsomes

>  <Unbound CLint>
< 159 µL/min/mg

$$$$
>  <MOLECULE>
CCCCN(CCCC)CCC(O)c1cc2c(Cl)cc(Cl)cc2c2cc(C(F)(F)F)ccc12 (centres unmarked) [Halofantrine]

>  <TARGET OR SYSTEM>
human liver microsomes

>  <Unbound CLint>
13,500 µL/min/mg

$$$$
